Origin of values: ChEMBL document CHEMBL3751682

# System: Rattus norvegicus
# Assay Method Text: Anti-inflammatory activity in albino Wistar rat assessed as inhibition of carrageenan-induced paw edema at 25 mg/kg, po measured every one hour for 5 hrs
# Assay type: functional
Readout: inhibition in vivo at 25 mg/kg (%)
Give bare numbers, in %.

In the examples that follow, each entry is paired with its recorded inhibition in vivo at 25 mg/kg.
chem_smiles=Nc1nc(-c2ccc(Br)cc2)c2c(n1)-c1ccccc1C2=O readout="inhibition in vivo at 25 mg/kg" reported=76.7
chem_smiles=Nc1nc(-c2ccc(Cl)cc2)c2c(n1)-c1ccccc1C2=O readout="inhibition in vivo at 25 mg/kg" reported=76
chem_smiles=Nc1nc(-c2ccccc2)c2c(n1)-c1ccccc1C2=O readout="inhibition in vivo at 25 mg/kg" reported=76.7
chem_smiles=Nc1nc(-c2ccc([N+](=O)[O-])cc2)c2c(n1)-c1ccccc1C2=O readout="inhibition in vivo at 25 mg/kg" reported=77.3
chem_smiles=Nc1nc(-c2cccc([N+](=O)[O-])c2)c2c(n1)-c1ccccc1C2=O readout="inhibition in vivo at 25 mg/kg" reported=76

For every listed record, write down its inhibition in vivo at 25 mg/kg.
1. COc1cc(-c2nc(N)nc3c2C(=O)c2ccccc2-3)cc(OC)c1OC
2. COc1cccc(-c2nc(N)nc3c2C(=O)c2ccccc2-3)c1

75.3
75.3

###

# Test system: Rattus norvegicus
# Assay Method Text: Ulcerogenicity in albino Wistar rat assessed as ulcer index at 50 mg/kg, po after 20 hrs
# Assay type: toxicity, organism-based
# Experimental Context: in vivo
Readout: UI
Answers are plain numbers.

In the examples that follow, each entry is paired with its recorded UI.
chem_smiles=Nc1nc(-c2cccc([N+](=O)[O-])c2)c2c(n1)-c1ccccc1C2=O target_of_assay="Rattus norvegicus" reported=2.9
chem_smiles=COc1cccc(-c2nc(N)nc3c2C(=O)c2ccccc2-3)c1 target_of_assay="Rattus norvegicus" reported=2.9
chem_smiles=Nc1nc(-c2ccc(Cl)cc2)c2c(n1)-c1ccccc1C2=O target_of_assay="Rattus norvegicus" reported=3
chem_smiles=Nc1nc(-c2ccccc2)c2c(n1)-c1ccccc1C2=O target_of_assay="Rattus norvegicus" reported=3
chem_smiles=COc1cc(-c2nc(N)nc3c2C(=O)c2ccccc2-3)cc(OC)c1OC target_of_assay="Rattus norvegicus" reported=2.8

For every listed record, write down its UI.
1. Nc1nc(-c2ccc([N+](=O)[O-])cc2)c2c(n1)-c1ccccc1C2=O
2. Nc1nc(-c2ccc(Br)cc2)c2c(n1)-c1ccccc1C2=O

2.9
2.9

###

# Assay Method Text: Ratio of IC50 for human COX2 to IC50 for ovine COX1 by prostaglandin biosynthesis assay
Task for the reader: assign each of the following compounds its reported Ratio IC50.
Give bare numbers.

chem_smiles=COc1cccc(-c2nc(N)nc3c2C(=O)c2ccccc2-3)c1 reported=0.68
chem_smiles=Nc1nc(-c2ccc(Br)cc2)c2c(n1)-c1ccccc1C2=O reported=0.69

For every listed record, write down its Ratio IC50.
1. Cc1ccc(-c2cc(C(F)(F)F)nn2-c2ccc(S(N)(=O)=O)cc2)cc1
2. Nc1nc(-c2cccc([N+](=O)[O-])c2)c2c(n1)-c1ccccc1C2=O
3. COc1cc(-c2nc(N)nc3c2C(=O)c2ccccc2-3)cc(OC)c1OC
4. Nc1nc(-c2ccc(Cl)cc2)c2c(n1)-c1ccccc1C2=O

0.04
0.7
0.69
0.7

###

# System: Rattus norvegicus
# Assay Method Text: Anti-inflammatory activity in albino Wistar rat assessed as inhibition of carrageenan-induced paw edema at 50 mg/kg, po measured every one hour for 5 hrs
# Format: functional
Task for the reader: assign each of the following compounds its reported inhibition in vivo at 50 mg/kg.
Numbers only, in %.

In the examples that follow, each entry is paired with its recorded inhibition in vivo at 50 mg/kg.
chem_smiles=COc1cc(-c2nc(N)nc3c2C(=O)c2ccccc2-3)cc(OC)c1OC readout="inhibition in vivo at 50 mg/kg" result_units=% reported=78.7
chem_smiles=Nc1nc(-c2ccc(Cl)cc2)c2c(n1)-c1ccccc1C2=O readout="inhibition in vivo at 50 mg/kg" result_units=% reported=78
chem_smiles=Nc1nc(-c2cccc([N+](=O)[O-])c2)c2c(n1)-c1ccccc1C2=O readout="inhibition in vivo at 50 mg/kg" result_units=% reported=79.3
chem_smiles=COc1cccc(-c2nc(N)nc3c2C(=O)c2ccccc2-3)c1 readout="inhibition in vivo at 50 mg/kg" result_units=% reported=78

For every listed record, write down its inhibition in vivo at 50 mg/kg.
1. Nc1nc(-c2ccc(Br)cc2)c2c(n1)-c1ccccc1C2=O
2. Nc1nc(-c2ccccc2)c2c(n1)-c1ccccc1C2=O
3. Nc1nc(-c2ccc([N+](=O)[O-])cc2)c2c(n1)-c1ccccc1C2=O

[80, 80.7, 81.3]
